Assay Text: Pulmonary kinetics by intratracheal route, single dose
Type: in vivo, Wistar rats
Settings: both sexes, Wistar, rat, inhaled or intranasal; single dose 1 mg/kg IT, plasma; read-out: Tmax, Plasma, N-Oxide
Measure Name: Tmax (min)
Just the number please, in min, no unit attached.

Which Tmax reading was recorded for the molecule O=C(Nc1c(Cl)c[n+]([O-])cc1Cl)c1ccc(OC(F)F)c(OCC2CC2)c1 [Roflumilast N-oxide] ?
15

----------
Assay Text: Pulmonary kinetics by intratracheal route, multiple dose (7 days)
Type: in vivo, Wistar rats
Settings: both sexes, Wistar, rat, lung, inhaled or intranasal, 1 mg/kg, 1 mg/kg IT for 7 days, lung, Day-7; read-out: t1/2, Lung, Day-7, N-Oxide (converted)
Measure Name: half-life (min)
Just the number please, in min, no unit attached.

Which half-life reading was recorded for the compound O=C(Nc1c(Cl)c[n+]([O-])cc1Cl)c1ccc(OC(F)F)c(OCC2CC2)c1 [Roflumilast N-oxide] ?
48.6

----------
Assay Text: Pulmonary kinetics by intratracheal route, multiple dose (7 days)
Assay type: in vivo, Wistar rats
Settings: both sexes, Wistar, rat, plasma, inhaled or intranasal, 1 mg/kg, 1 mg/kg IT for 7 days, plasma, Day-1; read-out: AUC0-inf, Plasma, Day-1, N-Oxide
Measure Name: AUC(0-inf) (ng·h/mL)
Just the number please, in ng·h/mL, no unit attached.

Which AUC(0-inf) reading was recorded for the compound O=C(Nc1c(Cl)c[n+]([O-])cc1Cl)c1ccc(OC(F)F)c(OCC2CC2)c1 [Roflumilast N-oxide] ?
4350

----------
Assay Text: Pulmonary kinetics by intratracheal route, multiple dose (7 days)
Type: in vivo, Wistar rats
Settings: both sexes, Wistar, rat, plasma, inhaled or intranasal, 1 mg/kg, 1 mg/kg IT for 7 days, plasma, Day-1; read-out: AUC0-t, Plasma, Day-1, N-Oxide
Measure Name: AUC(0-t) (ng·h/mL)
Just the number please, in ng·h/mL, no unit attached.

Which AUC(0-t) reading was recorded for the molecule O=C(Nc1c(Cl)c[n+]([O-])cc1Cl)c1ccc(OC(F)F)c(OCC2CC2)c1 [Roflumilast N-oxide] ?
4160

----------
Assay Text: Pulmonary kinetics by intratracheal route, multiple dose (7 days)
Format: in vivo, Wistar rats
Settings: both sexes, Wistar, rat, plasma, inhaled or intranasal, 1 mg/kg, 1 mg/kg IT for 7 days, plasma, Day-7; read-out: AUC0-t, Plasma, Day-7, N-Oxide
Measure Name: AUC(0-t) (ng·h/mL)
Just the number please, in ng·h/mL, no unit attached.

Which AUC(0-t) reading was recorded for the compound O=C(Nc1c(Cl)c[n+]([O-])cc1Cl)c1ccc(OC(F)F)c(OCC2CC2)c1 [Roflumilast N-oxide] ?
2250

----------
Assay Text: Pulmonary kinetics by intratracheal route, multiple dose (7 days)
Assay type: in vivo, Wistar rats
Settings: both sexes, Wistar, rat, plasma, inhaled or intranasal, 1 mg/kg, 1 mg/kg IT for 7 days, plasma, Day-1; read-out: t1/2, Plasma, Day-1, N-Oxide (converted)
Experimental: Male and female Wistar rats were weighed and randomized for groups for various time points. Roflumilast N-oxide was prepared as a suspension in a suitable vehicle for intratracheal administration. […] The plasma and lung concentrations of roflumilast N-oxide in all samples were analyzed by LC-MS/MS (using X-Calibur 2.0.7 software) as per the established method. […] Pharmacokinetic parameters in plasma were calculated from concentration data as ng/ml. […]
Measure Name: half-life
Form entry: enter the amount, then its unit.

Which half-life reading was recorded for the compound O=C(Nc1c(Cl)c[n+]([O-])cc1Cl)c1ccc(OC(F)F)c(OCC2CC2)c1 [Roflumilast N-oxide] ?
5.43 h
